// data source = PubChem BioAssay AID504332

tested.on: Histone-lysine N-methyltransferase EHMT2 (Homo sapiens)
assay.protocol: qHTS Assay for Inhibitors of Histone Lysine Methyltransferase G9a; also: % is scaled to controls: 0 for no effect and ±100 for the full control effect; nearly all actives have a fitted effect of over 75% in size
condition.label: G9a H3K9 monomethylation, AlphaScreen, 2 h; series mostly up to 102 µM
In all, about 350,000 compounds went through this assay and about 31,000 (8.9%) were called active. Roughly 15% stayed inconclusive and do not appear here. What follows is part of a selection rich in actives, with near analogues and random picks from the rest.
property.label: activity, negative = inhibition

// solved cases for activity, negative = inhibition follow
OC1/C(=C/c2ccc(C(F)(F)F)cc2)N2CCC1CC2 (stereo unspecified) :: inactive
CCCOC(=O)C1C2c3ccccc3C(c3ccccc32)C1C(=O)O (stereo unspecified) :: inactive
Cc1ccsc1C(=O)C1CCCN(Cc2ccc(O)cc2)C1 (stereo unspecified) :: inactive
Cn1c(C(=O)N2CCC(C(=O)N3CCC4(CC3)OCCO4)CC2)cc2sccc21 :: inactive
CC(Cc1ccccc1)NCCC(c1ccccc1)c1ccccc1 (stereo unspecified) :: inactive
CCCCCCCCc1[se]c2ccccc2c1Br :: inactive
CCN(CC)P(=O)(Oc1cccc(C)c1)N(CC)CC :: inactive
O=C(c1cc2nc(-c3ccccc3)cc(-c3ccccc3)n2n1)N1CCC2(CC1)OCCO2 :: 17.4% [at 12.7 µM] (inactive)

Please look at the items below and tell me activity, negative = inhibition for each one, in order.
1. NC[C@H](O)c1ccc(O)cc1
2. CCOC(=O)c1c(N)n(Cc2ccccc2)c2nc3ccccc3nc12
3. COC(=O)C1=C(c2ccccc2OCc2ccccc2)C[C@@H]2CC[C@H]1N2C(=O)NCc1ccc(OC)cc1
4. COc1ccc(-c2nc(CS(=O)CC(=O)N3CCC4(CC3)OCCO4)c(C)o2)cc1 (stereo unspecified)
5. CC(C(=O)Nc1ccc(Cl)cc1Cl)N1CC=C(c2ccccc2)CC1 (stereo unspecified)
6. CC[N+]1(CCOC(=O)C(O)(c2ccccc2)c2ccccc2)CCCCC1

24.2% [at 21.5 µM] (inactive)
inactive
-7.46% [at 2.33 µM] (inactive)
-4.28% [at 12.7 µM] (inactive)
inactive
-33.9% [at 12.7 µM] (inactive)

Please look at the items below and tell me activity, negative = inhibition for each one, in order.
1. O=C(c1cc(S(=O)(=O)N2CCOCC2)ccc1F)N1CCC2(CC1)OCCO2
2. Cc1ccc(-c2nn(CCC#N)cc2C(=O)O)cc1C
3. CC(C)c1ccc(O)c(CN2CCN(c3ccccc3)CC2)c1
4. CC(=O)c1ccc(OC(NC(=O)Cc2ccccc2)C(Cl)(Cl)Cl)cc1 (stereo unspecified)
5. CCCCC(=O)N/N=C/c1c(O)n(CCC2=CCCCC2)c(=O)[nH]c1=O

["-11% [at 12.7 µM] (inactive)", "inactive", "inactive", "inactive", "inactive"]
